# method-summary: Balb/C mouse pharmacokinetics (plasma, colon, ileum)
# Format: in vivo
# condition-notes: male, plasma, po, Balb/C mice, p.o. 5 mg/kg, blood, read-out: Time to peak tmax
Quick reference: Tmax of the listed items.
Field format: number, assumed h, no unit text.

Answered cases to consult:
[[record]]
molecule = "Cc1cc(Nc2nc(N[C@@H]3C[C@@H]4CN(CCC#N)C[C@@H]4C3)nc3ccsc23)n[nH]1 [Embodiment 299]"
number = 0.5

[[record]]
molecule = "Cc1cc(Nc2nc(N[C@@H]3C[C@H]4CC[C@@H](C3)N4CCC#N)nc3sc(C)cc23)n[nH]1 [Embodiment 277]"
number = 2

[[record]]
molecule = "Cc1cc(Nc2nc(N[C@@H]3C[C@H]4CC[C@@H](C3)N4CCC#N)nc3cc(N4CCOCC4)ccc23)n[nH]1 [Embodiment 191]"
number = 1


# context switch: different molecule, same Tmax
# input Please report the measured Tmax for Cc1cc(Nc2nc(N[C@@H]3C[C@H]4CCC[C@@H](C3)N4C(=O)CN3CCOCC3)nc3ccsc23)n[nH]1 [Embodiment 288]
# output 2

---

# tested-target: JAK1 (Homo sapiens, UniProt P23458)
# Sequence (P23458 whole entry): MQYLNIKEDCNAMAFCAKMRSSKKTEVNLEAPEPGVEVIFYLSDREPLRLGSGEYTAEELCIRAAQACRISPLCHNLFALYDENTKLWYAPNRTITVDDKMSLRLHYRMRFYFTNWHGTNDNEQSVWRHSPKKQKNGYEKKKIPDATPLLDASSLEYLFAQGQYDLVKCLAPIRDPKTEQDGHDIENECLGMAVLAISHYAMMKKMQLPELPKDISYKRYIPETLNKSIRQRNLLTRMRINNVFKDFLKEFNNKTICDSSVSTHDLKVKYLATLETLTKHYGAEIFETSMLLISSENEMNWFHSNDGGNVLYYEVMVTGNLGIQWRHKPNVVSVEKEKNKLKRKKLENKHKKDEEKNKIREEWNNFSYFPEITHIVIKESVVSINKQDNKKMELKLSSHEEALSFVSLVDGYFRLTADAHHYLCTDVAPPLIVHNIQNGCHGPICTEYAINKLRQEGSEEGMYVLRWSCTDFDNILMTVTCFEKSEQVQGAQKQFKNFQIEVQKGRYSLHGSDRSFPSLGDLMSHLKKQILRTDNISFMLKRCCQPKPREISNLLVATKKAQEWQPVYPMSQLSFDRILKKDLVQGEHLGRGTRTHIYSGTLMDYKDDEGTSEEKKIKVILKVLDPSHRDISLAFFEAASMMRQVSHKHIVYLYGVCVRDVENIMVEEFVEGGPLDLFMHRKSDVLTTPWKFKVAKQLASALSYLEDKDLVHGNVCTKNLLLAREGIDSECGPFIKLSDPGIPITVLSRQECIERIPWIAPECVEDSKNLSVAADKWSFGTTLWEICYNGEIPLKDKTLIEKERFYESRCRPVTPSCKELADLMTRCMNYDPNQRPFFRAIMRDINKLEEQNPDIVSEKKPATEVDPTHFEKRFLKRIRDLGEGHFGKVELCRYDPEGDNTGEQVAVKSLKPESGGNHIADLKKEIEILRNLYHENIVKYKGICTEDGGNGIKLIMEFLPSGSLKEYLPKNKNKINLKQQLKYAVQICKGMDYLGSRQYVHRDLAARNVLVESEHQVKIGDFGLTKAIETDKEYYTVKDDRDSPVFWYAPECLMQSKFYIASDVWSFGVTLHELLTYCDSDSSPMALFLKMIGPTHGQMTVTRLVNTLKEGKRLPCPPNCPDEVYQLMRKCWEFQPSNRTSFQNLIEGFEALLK
Quick reference: IC50 of the listed items.
Field format: number, assumed pM, no unit text.

[[record]]
structure_smiles = "Cc1cc(Nc2nc(N[C@@H]3C[C@H]4CC[C@@H](C3)N4CCC#N)nc3ncccc23)n[nH]1"
u = "pM"
number = 650

[[record]]
structure_smiles = "COc1ccc2c(Nc3cc(C)[nH]n3)nc(N[C@@H]3C[C@H]4CCC[C@@H](C3)N4S(=O)(=O)N3CC(C#N)C3)nc2c1"
u = "pM"
number = 90

[[record]]
structure_smiles = "Cc1cc(Nc2nc(N[C@@H]3C[C@H]4CCC[C@@H](C3)N4CC(=O)N(C)C)nc3sccc23)n[nH]1"
u = "pM"
number = 1220


# context switch: different compound, same IC50
# input Please report the measured IC50 for N#CCCN1[C@@H]2CC[C@H]1C[C@H](Nc1nc(Nc3cc(CO)[nH]n3)c3ccsc3n1)C2
# output 1280

---

# method-summary: Balb/C mouse pharmacokinetics (plasma, colon, ileum)
# Format: in vivo
# condition-notes: male, plasma, po, Balb/C mice, p.o. 5 mg/kg, blood, read-out: Curve area AUC0-t
observable: log10 AUC(0-t) (log10 of the value in ng·h/mL)
# log10 transformed; quantity=AUC(0-t); unit=ng·h/mL

[[record]]
molecule = "COc1ccc2c(Nc3cc(C)[nH]n3)nc(N[C@@H]3C[C@H]4CC[C@@H](C3)N4CCC#N)nc2c1 [Embodiment 169]"
observable = "log10 AUC(0-t)"
number = 0.48

[[record]]
molecule = "Cc1cc(Nc2nc(N[C@@H]3C[C@H]4CCC[C@@H](C3)N4C(=O)CN3CCOCC3)nc3ccsc23)n[nH]1 [Embodiment 288]"
observable = "log10 AUC(0-t)"
number = 1.33

[[record]]
molecule = "Cc1cc(Nc2nc(N[C@@H]3C[C@H]4CC[C@@H](C3)N4C(=O)CN3CCOCC3)nc3sccc23)n[nH]1 [Embodiment 244]"
observable = "log10 AUC(0-t)"
number = 1.26

[[record]]
molecule = "Cc1cnc(Nc2cc3ncccc3c(N[C@@H]3C[C@H]4CC[C@@H](C3)N4CCC#N)n2)s1 [Embodiment 1]"
observable = "log10 AUC(0-t)"
number = 1.76

[[record]]
molecule = "Cc1cc(Nc2nc(N[C@@H]3C[C@H]4CC[C@@H](C3)N4CCC#N)nc3sc(C)cc23)n[nH]1 [Embodiment 277]"
observable = "log10 AUC(0-t)"
number = 1.46

[[record]]
molecule = "Cc1cc(Nc2nc(N[C@@H]3C[C@H]4CCC[C@@H](C3)N4C(=O)c3nccn3C)nc3sccc23)n[nH]1 [Embodiment 263]"
observable = "log10 AUC(0-t)"
number = 1.76


# context switch: different molecule, same log10 AUC(0-t)
# input Please report the measured log10 AUC(0-t) for Cc1cc(Nc2nc(N[C@@H]3C[C@H]4CC[C@@H](C3)N4CCC#N)nc3cc(Br)ccc23)n[nH]1 [Embodiment 170]
# output 1.56

---

# method-summary: Balb/C mouse pharmacokinetics (plasma, colon, ileum)
# Assay type: in vivo
# condition-notes: male, plasma, po, Balb/C mice, p.o. 5 mg/kg, blood, read-out: Curve area AUC0-∞
Quick reference: AUC(0-inf) of the listed items.
Field format: number, assumed ng·h/mL, no unit text.

# input Please report the measured AUC(0-inf) for Cc1cc(Nc2nc(N[C@@H]3C[C@H]4CC[C@@H](C3)N4CCC#N)nc3cc(Cl)ccc23)n[nH]1
# output 26.7

# input Please report the measured AUC(0-inf) for Cc1cc(Nc2nc(N[C@@H]3C[C@H]4CC[C@@H](C3)N4CCC#N)nc3sc(C)cc23)n[nH]1
# output 31.1

# input Please report the measured AUC(0-inf) for Cc1cc(Nc2nc(NC3CCN(CCC#N)CC3)nc3sccc23)n[nH]1
# output 145

# input Please report the measured AUC(0-inf) for Cc1cc(Nc2nc(N[C@@H]3C[C@H]4CC[C@@H](C3)N4CCC#N)nc3ccsc23)n[nH]1
# output 32.9

---

# method-summary: Balb/C mouse pharmacokinetics (plasma, colon, ileum)
# Format: in vivo
# condition-notes: male, po, Balb/C mice, p.o. 5 mg/kg, colon, read-out: Blood concentration Cmax
observable: log10 of Cmax (log10 of the value in ng/mL)
# log10 transformed; quantity=Cmax; unit=ng/mL

[[record]]
molecule = "Cc1cc(Nc2nc(N[C@@H]3C[C@H]4CC[C@@H](C3)N4CCC#N)nc3cc(-c4cccnc4)ccc23)n[nH]1 [Embodiment 179]"
observable = "log10 of Cmax"
number = 2.69

[[record]]
molecule = "Cc1cc(Nc2nc(N[C@@H]3C[C@H]4CCC[C@@H](C3)N4C(=O)c3ccccn3)nc3sccc23)n[nH]1 [Embodiment 260]"
observable = "log10 of Cmax"
number = 3.95

[[record]]
molecule = "Cc1cc(Nc2nc(N[C@@H]3C[C@H]4CC[C@@H](C3)N4CCC#N)nc3cc(Cl)ccc23)n[nH]1 [Embodiment 171]"
observable = "log10 of Cmax"
number = 2.64

[[record]]
molecule = "COc1ccc2c(Nc3cc(C)[nH]n3)nc(N[C@@H]3C[C@H]4CC[C@@H](C3)N4CCC#N)nc2c1 [Embodiment 169]"
observable = "log10 of Cmax"
number = 3.95

[[record]]
molecule = "Cc1cc(Nc2nc(N[C@@H]3C[C@H]4CC[C@@H](C3)N4CCC#N)nc3cc(Br)ccc23)n[nH]1 [Embodiment 170]"
observable = "log10 of Cmax"
number = 3.64


# input Please report the measured log10 of Cmax for Cc1cc(Nc2nc(N[C@@H]3C[C@H]4CC[C@@H](C3)N4S(=O)(=O)N3CC(C#N)C3)nc3ccccc23)n[nH]1 [Embodiment 213]
# output 3.24

# input Please report the measured log10 of Cmax for Cc1cc(Nc2nc(N[C@@H]3C[C@H]4CCC[C@@H](C3)N4S(=O)(=O)N3CC(C#N)C3)nc3sccc23)n[nH]1 [Embodiment 238]
# output 3.12

---

# method-summary: Balb/C mouse pharmacokinetics (plasma, colon, ileum)
# Type: in vivo
# condition-notes: male, po, Balb/C mice, p.o. 5 mg/kg, colon, read-out: Time to peak tmax
observable: Tmax (h)
Field format: number, assumed h, no unit text.

Answered cases to consult:
[[record]]
structure_smiles = "Cc1cnc(Nc2cc3ncccc3c(N[C@@H]3C[C@H]4CC[C@@H](C3)N4CCC#N)n2)s1"
observable = "Tmax"
number = 3

[[record]]
structure_smiles = "COc1ccc2c(Nc3cc(C)[nH]n3)nc(N[C@@H]3C[C@H]4CC[C@@H](C3)N4CCC#N)nc2c1"
observable = "Tmax"
number = 5

[[record]]
structure_smiles = "Cc1cc(Nc2nc(N[C@@H]3C[C@H]4CCC[C@@H](C3)N4C(=O)c3nccn3C)nc3sccc23)n[nH]1"
observable = "Tmax"
number = 3


# context switch: different compound, same Tmax
# input Please report the measured Tmax for Cc1cc(Nc2nc(N[C@@H]3C[C@H]4CC[C@@H](C3)N4S(=O)(=O)N3CC(C#N)C3)nc3ccccc23)n[nH]1
# output 5

---

Quick reference: IC50 of the listed items.
# tested-target: JAK1 (Homo sapiens, UniProt P23458)
Field format: number, assumed nM, no unit text.

[[record]]
structure_smiles = "Cc1cc(Nc2nc(N[C@@H]3C[C@H]4CC[C@@H](C3)N4CCC#N)nc3cc(N4CCOCC4)ccc23)n[nH]1"
observable = "IC50"
number = 0.41

[[record]]
structure_smiles = "Cc1cc(Nc2nc(N(C)[C@@H]3C[C@H]4CC[C@@H](C3)N4S(=O)(=O)N3CC(C#N)C3)nc3sc(C)cc23)n[nH]1"
observable = "IC50"
number = 0.49

[[record]]
structure_smiles = "N#CCCN1[C@@H]2CC[C@H]1C[C@H](Nc1nc(Nc3cc(CO)[nH]n3)cc3ncccc13)C2"
observable = "IC50"
number = 2.23

[[record]]
structure_smiles = "Cc1cc(Nc2nc(N[C@@H]3C[C@H]4CC[C@@H](C3)N4CCC#N)nc3sc(C)cc23)n[nH]1"
observable = "IC50"
number = 0.61


# input Please report the measured IC50 for N#CCCN1[C@@H]2CC[C@H]1C[C@H](Nc1nc(Nc3cc[nH]n3)cc3ncccc13)C2
# output 4.03

# input Please report the measured IC50 for Cc1cc(Nc2nc(N[C@@H]3C[C@H]4CC[C@@H](C3)N4C(=O)C(F)F)nc3ccccc23)n[nH]1
# output 11.3

# input Please report the measured IC50 for O=C(CN1CCCC1)N1[C@@H]2CCC[C@H]1C[C@H](Nc1nc(Nc3ncc(CO)s3)cc3ncccc13)C2
# output 0.85
